Target: PE-labeled human PD-L1-Ig binding to Jurkat cell line over-expressing human PD-1 (Jurkat-PD-1) (Homo sapiens, UniProt Q15116)
Construct: expressed in transfected cells; host or cells: Jurkat
Sequence (Q15116 25-288): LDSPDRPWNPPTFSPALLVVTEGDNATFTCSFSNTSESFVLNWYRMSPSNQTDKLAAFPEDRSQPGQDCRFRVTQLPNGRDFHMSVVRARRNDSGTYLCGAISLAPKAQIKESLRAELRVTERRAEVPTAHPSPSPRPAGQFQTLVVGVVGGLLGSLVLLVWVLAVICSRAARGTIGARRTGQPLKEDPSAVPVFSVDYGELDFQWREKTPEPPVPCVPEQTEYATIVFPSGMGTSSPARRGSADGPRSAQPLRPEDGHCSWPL
Assay: Jurkat-PD-1 Cell Binding High-Content Screening Assay (CBA): Method 1
Details: Jurkat-hPD-1 cells, PE-labeled PD-L1-Ig 20 nM final; read-out: Jurkat HPDL1 PD1 IC50 (uM) (Method 1)
Bridge positions count the residues as written; N and C are the ends. Square brackets hold non-standard residues; d marks the D form. Peptide text beside a SMILES is read from it. Bip = N[C@@H](Cc1ccc(-c2ccccc2)cc1)C(=O)O; NMeA = CN[C@@H](C)C(=O)O
Measured parameter: IC50 (µM)
Enter your answer as a number in µM; do not include the unit.

Request the reported IC50 associated with CC(C)C[C@@H]1NC(=O)[C@H](Cc2c[nH]c3ccccc23)NC(=O)[C@H](CC(=O)O)NC(=O)[C@H](Cc2ccc(O)cc2)NC(=O)[C@H](Cc2ccccc2)NC(=O)CSC[C@@H](C(=O)N[C@@H](C)C(N)=O)NC(=O)[C@H]([C@@H](C)O)NC(=O)[C@H](C(C)C)NC(=O)[C@H](CC(C)C)NC(=O)[C@H](CC(N)=O)NC(=O)[C@@H](C)NC(=O)[C@H](C)N(C)C(=O)[C@H](C(C)C)NC(=O)[C@H](Cc2ccc(-c3ccccc3)cc2)NC1=O [Compound 1744] ({CH2CO}-FYDWL[Bip]V[NMeA][dA]NLVTCA-NH2; thioether N-14)
0.02

* * *

Catalogue of IC50 values
Target: PE-labeled human PD-L1-Ig binding to Jurkat cell line over-expressing human PD-1 (Jurkat-PD-1) (Homo sapiens)
Construct: expressed in transfected cells; host or cells: Jurkat
Assay: Jurkat-PD-1 Cell Binding High-Content Screening Assay (CBA): Method 1
Conditions: Jurkat-hPD-1 cells, PE-labeled PD-L1-Ig 20 nM final; read-out: Jurkat HPDL1 PD1 IC50 (uM) (Method 1)
Bridge positions count the residues as written; N and C are the ends. Square brackets hold non-standard residues; d marks the D form. Peptide text beside a SMILES is read from it. Bip = N[C@@H](Cc1ccc(-c2ccccc2)cc1)C(=O)O; NMeA = CN[C@@H](C)C(=O)O
Enter your answer as a number in µM; do not include the unit.

# Compound, IC50 (µM)
data = [
    ("CC(C)C[C@@H]1NC(=O)[C@H](Cc2c[nH]c3ccccc23)NC(=O)[C@H](CC(=O)O)NC(=O)[C@H](Cc2ccc(O)cc2)NC(=O)[C@H](Cc2ccccc2)NC(=O)CSC[C@@H](C(=O)N[C@@H](C)C(N)=O)NC(=O)[C@H](CO)NC(=O)[C@H](CCCCN)NC(=O)[C@H](CC(C)C)NC(=O)[C@H](CC(N)=O)NC(=O)[C@@H](C)NC(=O)[C@H](C)N(C)C(=O)[C@H](C(C)C)NC(=O)[C@H](Cc2ccc(-c3ccccc3)cc2)NC1=O [Compound 1529] ({CH2CO}-FYDWL[Bip]V[NMeA][dA]NLKSCA-NH2; thioether N-14)", 0.05),
]

Turning now to a further record.
Request the reported IC50 associated with CC(C)C[C@@H]1NC(=O)[C@H](CCCNC(=N)N)NC(=O)[C@@H](Cc2ccc(O)cc2)NC(=O)[C@H](C)N(C)C(=O)[C@H](CCCNC(=N)N)NC(=O)[C@H](Cc2ccc(-c3ccccc3)cc2)NC(=O)[C@H](C(C)C)NC(=O)[C@H](Cc2c[nH]c3ccccc23)NC(=O)[C@H](CC(=O)O)NC(=O)[C@H](Cc2ccc(O)cc2)NC(=O)[C@H](Cc2ccccc2)NC(=O)CSC[C@@H](C(=O)NCC(N)=O)NC(=O)[C@H](CO)NC(=O)[C@H](C(C)C)NC1=O [Compound 1020] ({CH2CO}-FYDWV[Bip]R[NMeA][dY]RLVSCG-NH2; thioether N-14)
0.07

* * *

Molecular target: PE-labeled human PD-L1-Ig binding to Jurkat cell line over-expressing human PD-1 (Jurkat-PD-1) (Homo sapiens, UniProt Q15116)
Construct: expressed in transfected cells; host or cells: Jurkat
Assay: Jurkat-PD-1 Cell Binding High-Content Screening Assay (CBA): Method 1
Details: Jurkat-hPD-1 cells, PE-labeled PD-L1-Ig 20 nM final; read-out: Jurkat HPDL1 PD1 IC50 (uM) (Method 1)
Bridge positions count the residues as written; N and C are the ends. Square brackets hold non-standard residues; d marks the D form. Peptide text beside a SMILES is read from it. Bip = N[C@@H](Cc1ccc(-c2ccccc2)cc1)C(=O)O; NMeA = CN[C@@H](C)C(=O)O; Dab = NCC[C@H](N)C(=O)O
Measured parameter: IC50

Request the reported IC50 associated with CC(C)C[C@@H]1NC(=O)[C@H](Cc2c[nH]c3ccccc23)NC(=O)[C@H](CC(=O)O)NC(=O)[C@H](Cc2ccc(O)cc2)NC(=O)[C@H](Cc2ccccc2)NC(=O)CSC[C@@H](C(=O)NCC(N)=O)NC(=O)[C@H](CO)NC(=O)[C@H](C(C)C)NC(=O)[C@H](CC(C)C)NC(=O)[C@H](CCN)NC(=O)[C@@H](C)NC(=O)[C@H](C)N(C)C(=O)[C@H](C(C)C)NC(=O)[C@H](Cc2ccc(-c3ccccc3)cc2)NC1=O [Compound 1479] ({CH2CO}-FYDWL[Bip]V[NMeA][dA][Dab]LVSCG-NH2; thioether N-14)
0.02 µM

* * *

Catalogue of log10 of IC50 values
Biological target: PE-labeled human PD-L1-Ig binding to Jurkat cell line over-expressing human PD-1 (Jurkat-PD-1) (Homo sapiens, UniProt Q15116)
Construct: expressed in transfected cells; host or cells: Jurkat
Experiment: Jurkat-PD-1 Cell Binding High-Content Screening Assay (CBA): Method 1
Conditions: Jurkat-hPD-1 cells, PE-labeled PD-L1-Ig 20 nM final; read-out: Jurkat HPDL1 PD1 IC50 (uM) (Method 1)
Bridge positions count the residues as written; N and C are the ends. Square brackets hold non-standard residues; d marks the D form. Peptide text beside a SMILES is read from it. Phe(4-(4-F-Ph)) = N[C@@H](Cc1ccc(-c2ccc(F)cc2)cc1)C(=O)O; Bip = N[C@@H](Cc1ccc(-c2ccccc2)cc1)C(=O)O; Phe(4-CN) = N#Cc1ccc(C[C@H](N)C(=O)O)cc1; Phe(3-Me) = Cc1cccc(C[C@H](N)C(=O)O)c1; 4Pal = N[C@@H](Cc1ccncc1)C(=O)O; 2Thi = N[C@@H](Cc1cccs1)C(=O)O; NMeA = CN[C@@H](C)C(=O)O; Dab = NCC[C@H](N)C(=O)O; Dap = NC[C@H](N)C(=O)O
Note: values are log10 of IC50 expressed in µM.

Worked cases, log10 of IC50 given:
# Compound, log10 of IC50
records = [
    ("CC(C)C[C@@H]1NC(=O)[C@H](CCCNC(=N)N)NC(=O)[C@@H](Cc2ccccc2)NC(=O)[C@H](C)N(C)C(=O)[C@H](CCCNC(=N)N)NC(=O)[C@H](Cc2ccc(-c3ccccc3)cc2)NC(=O)[C@H](C(C)C)NC(=O)[C@H](Cc2c[nH]c3ccccc23)NC(=O)[C@H](CC(=O)O)NC(=O)[C@H](Cc2ccc(O)cc2)NC(=O)[C@H](CC(N)=O)NC(=O)CSC[C@@H](C(=O)N[C@@H](C)C(N)=O)NC(=O)[C@H](CO)NC(=O)[C@H](C(C)C)NC1=O [Compound 1042] ({CH2CO}-NYDWV[Bip]R[NMeA][dF]RLVSCA-NH2; thioether N-14)", -1.40),
    ("CC(C)C[C@@H]1NC(=O)[C@H](CCN)NC(=O)[C@@H](CC(C)C)NC(=O)[C@H](C)N(C)C(=O)[C@H](Cc2cnc[nH]2)NC(=O)[C@H](Cc2ccc(-c3ccccc3)cc2)NC(=O)[C@H](C(C)C)NC(=O)[C@H](Cc2c[nH]c3ccccc23)NC(=O)[C@H](CC(=O)O)NC(=O)[C@H](Cc2ccc(O)cc2)NC(=O)[C@H](CN)NC(=O)CSC[C@@H](C(=O)N[C@@H](C)C(N)=O)NC(=O)[C@H]([C@@H](C)O)NC(=O)[C@H](C(C)C)NC1=O [Compound 1424] ({CH2CO}-[Dap]YDWV[Bip]H[NMeA][dL][Dab]LVTCA-NH2; thioether N-14)", -1.30),
    ("CC(C)C[C@@H]1NC(=O)[C@H](Cc2c[nH]c3ccccc23)NC(=O)[C@H](CC(=O)O)NC(=O)[C@H](Cc2cccs2)NC(=O)[C@H](Cc2ccccc2)NC(=O)CSC[C@@H](C(=O)N[C@@H](C)C(N)=O)NC(=O)[C@H](CO)NC(=O)[C@H](C(C)C)NC(=O)[C@H](CC(C)C)NC(=O)[C@H](CC(N)=O)NC(=O)[C@@H](C)NC(=O)[C@H](C)N(C)C(=O)[C@H](C(C)C)NC(=O)[C@H](Cc2ccc(-c3ccccc3)cc2)NC1=O [Compound 1725] ({CH2CO}-F[2Thi]DWL[Bip]V[NMeA][dA]NLVSCA-NH2; thioether N-14)", -2.00),
    ("CC(C)C[C@@H]1NC(=O)[C@H](Cc2c[nH]c3ccccc23)NC(=O)[C@H](CC(=O)O)NC(=O)[C@H](Cc2ccc(O)cc2)NC(=O)[C@H](CC(N)=O)NC(=O)CSC[C@@H](C(=O)N[C@@H](C)C(N)=O)NC(=O)[C@H](CO)NC(=O)[C@H](C(C)C)NC(=O)[C@H](CC(C)C)NC(=O)[C@H](CC(N)=O)NC(=O)[C@@H](C)NC(=O)[C@H](C)N(C)C(=O)[C@H](C(C)C)NC(=O)[C@H](Cc2ccc(-c3ccccc3)cc2)NC1=O [Compound 1762] ({CH2CO}-NYDWL[Bip]V[NMeA][dA]NLVSCA-NH2; thioether N-14)", -1.40),
    ("Cc1cccc(C[C@@H]2NC(=O)[C@H](CC(=O)O)NC(=O)[C@H](Cc3ccc(O)cc3)NC(=O)[C@H](CC(N)=O)NC(=O)CSC[C@@H](C(=O)N[C@@H](C)C(N)=O)NC(=O)[C@H]([C@@H](C)O)NC(=O)[C@H](C(C)C)NC(=O)[C@H](CC(C)C)NC(=O)[C@H](CCCNC(=N)N)NC(=O)[C@@H](CC(C)C)NC(=O)[C@H](C)N(C)C(=O)[C@H](C(C)C)NC(=O)[C@H](Cc3ccc(-c4ccccc4)cc3)NC(=O)[C@H](C(C)C)NC2=O)c1 [Compound 1273] ({CH2CO}-NYD[Phe(3-Me)]V[Bip]V[NMeA][dL]RLVTCA-NH2; thioether N-14)", -2.00),
    ("CC(C)C[C@@H]1NC(=O)[C@H](Cc2c[nH]c3ccccc23)NC(=O)[C@H](CC(=O)O)NC(=O)[C@H](Cc2ccc(C#N)cc2)NC(=O)[C@H](Cc2ccccc2)NC(=O)CSC[C@@H](C(=O)N[C@@H](C)C(N)=O)NC(=O)[C@H](CO)NC(=O)[C@H](C(C)C)NC(=O)[C@H](CC(C)C)NC(=O)[C@H](CC(N)=O)NC(=O)[C@@H](C)NC(=O)[C@H](C)N(C)C(=O)[C@H](C(C)C)NC(=O)[C@H](Cc2ccc(-c3ccccc3)cc2)NC1=O [Compound 1726] ({CH2CO}-F[Phe(4-CN)]DWL[Bip]V[NMeA][dA]NLVSCA-NH2; thioether N-14)", -2.00),
    ("CC(C)C[C@@H]1NC(=O)[C@H](Cc2c[nH]c3ccccc23)NC(=O)[C@H](CC(=O)O)NC(=O)[C@H](Cc2ccc(O)cc2)NC(=O)[C@H](Cc2ccccc2)NC(=O)CSC[C@@H](C(=O)N[C@@H](C)C(N)=O)NC(=O)[C@H](CO)NC(=O)[C@H](C(C)C)NC(=O)[C@H](CC(C)C)NC(=O)[C@H](CC(=O)O)NC(=O)[C@@H](C)NC(=O)[C@H](C)N(C)C(=O)[C@H](C(C)C)NC(=O)[C@H](Cc2ccc(-c3ccc(F)cc3)cc2)NC1=O [Compound 1825] ({CH2CO}-FYDWL[Phe(4-(4-F-Ph))]V[NMeA][dA]DLVSCA-NH2; thioether N-14)", -0.18),
]

Turning now to a further record.
Request the reported log10 of IC50 associated with CC[C@H](C)[C@@H]1NC(=O)[C@H](Cc2ccc(-c3ccccc3)cc2)NC(=O)[C@H](C(C)C)NC(=O)[C@H](Cc2c[nH]c3ccccc23)NC(=O)[C@H](CC(=O)O)NC(=O)[C@H](Cc2ccncc2)NC(=O)[C@H](CN)NC(=O)CSC[C@@H](C(=O)N[C@@H](C)C(N)=O)NC(=O)[C@H]([C@@H](C)O)NC(=O)[C@H](C(C)C)NC(=O)[C@H](CC(C)C)NC(=O)[C@H](CCN)NC(=O)[C@@H](CC(C)C)NC(=O)[C@H](C)N(C)C1=O [Compound 1405] ({CH2CO}-[Dap][4Pal]DWV[Bip]I[NMeA][dL][Dab]LVTCA-NH2; thioether N-14)
-1.52
